The origin of these recorded values is patent US6447749B1.

Reported Fluorescence max. by item:
Assay info: Photophysical characterization: fluorescence properties and fluorescence quantum yield (SPEX-fluorolog, relative to indocyanine green)
Type: physicochemical
Test context: dyes 7-14 table; formulation with Gd-complex perfluoroalkyl derivative (WO 97/26017 Ex. 33); 5 mol % of dye
Structures can show the parent of a compound that is named as a salt.
Include the unit after the number when you answer.

| Compound | Fluorescence max. |
| --- | --- |
| CCN1C(=CC=CC=CC=CC2=[N+](CCCCS(=O)(=O)[O-])c3ccc(C(=O)N(CCOCCC(F)(F)C(F)(F)C(F)(F)C(F)(F)C(F)(F)C(F)(F)C(F)(F)C(F)(F)F)CC(O)CO)cc3C2(C)C)C(C)(C)c2ccccc21 (centres unmarked) [Dye 14, sodium salt] | 789 nm |

QUERY: Give the measured Fluorescence max. of CCN1C(=CC=CC=CC2=[N+](CCCCS(=O)(=O)[O-])c3ccc(C(=O)N(CCOCCC(F)(F)C(F)(F)C(F)(F)C(F)(F)C(F)(F)C(F)(F)C(F)(F)C(F)(F)F)CC(O)CO)cc3C2(C)C)C(C)(C)c2ccccc21 (centres unmarked) [Dye 13, sodium salt] .
RESULT: 684 nm
